# System: Candida albicans
# particulars: Concentration 32 ug.mL-1; ASSAY_TEST Inhibition of Fungal Growth; detection method Absorption (OD530)
# Description: Antifungal activity against Candida albicans ATCC 90028 (CO-ADD:FG_001); MIC in YNB media using NBS plates, by OD630
Potency and affinity values are given separately.
Consider the following compounds; for each one, report its Inhibition.
Numbers only, in %.

Solved entries:
{"molecule_smiles": "Cc1cccc(NC(=O)CSc2nnc3ccc(C(=O)Nc4cccc(F)c4)cn23)c1", "experimental_readout": "Inhibition", "unit_of_measurement": "%", "value_measured": 1.08}
{"molecule_smiles": "COc1cccc(Sc2nc3ccccc3n3c(=O)n(CC(=O)Nc4ccc(C)c(C)c4)nc23)c1", "experimental_readout": "Inhibition", "unit_of_measurement": "%", "value_measured": 20.61}
{"molecule_smiles": "Cc1cc2nn(CC(=O)NC3CCCCC3)c(=O)n2c(Nc2ccc(F)c(C)c2)n1", "experimental_readout": "Inhibition", "unit_of_measurement": "%", "value_measured": 3.39}
{"molecule_smiles": "CSc1cccc(NC(=O)Cn2nc3ccc(C(=O)NCc4ccccc4)cn3c2=O)c1", "experimental_readout": "Inhibition", "unit_of_measurement": "%", "value_measured": 7.13}
{"molecule_smiles": "COc1cccc(CNC(=O)CSc2nnc3c(=O)n(-c4ccccc4)ccn23)c1OC", "experimental_readout": "Inhibition", "unit_of_measurement": "%", "value_measured": -1.2}

I have 3 compounds here; please give me Inhibition for each one.
1. COc1cccc(C(=O)Cn2nc3n(CCC(C)C)c(=O)c4sccc4n3c2=O)c1
2. O=S(=O)(c1cccn2c(SCc3c(F)cccc3Cl)nnc12)N1CCCC1
3. CCOc1ccc(-n2ccn3c(SCC(=O)c4ccc(C)cc4C)nnc3c2=O)cc1

## Output
1: 8.83; 2: -0.64; 3: 2.76

I have 8 compounds here; please give me Inhibition for each one.
1. COc1ccccc1-n1ccn2c(SCC(=O)Nc3ccc4c(c3)OCCO4)nnc2c1=O
2. CCCc1nnc2c(=O)n(CC(=O)Nc3ccc(C#N)cc3)c3ccccc3n12
3. CCOC(=O)c1ccccc1NC(=O)Cn1nc2c3cc(-c4ccc(Cl)cc4)nn3ccn2c1=O
4. COc1cccc(Sc2nc3ccccc3n3c(=O)n(CC(=O)N4CCCc5ccccc54)nc23)c1
5. COc1ccc(CNC(=O)Cn2nc3c(N4CCN(c5ccccc5)CC4)nccn3c2=O)cc1
6. COc1ccc(NC(=O)Cn2nc3nc(N4CCOCC4)ccn3c2=O)cc1F
7. COC(=O)c1ccc(NC(=O)Cn2nc3c4cc(-c5ccc(F)cc5)nn4ccn3c2=O)cc1
8. COc1cc(NC(=O)Cn2nc3c(N4CCCC4)nccn3c2=O)cc(OC)c1

## Output
1. 6.52
2. 1.16
3. 2.98
4. 0.71
5. 4.36
6. 5.37
7. 3.5
8. -1.46

I have 4 compounds here; please give me Inhibition for each one.
1. COc1ccc(NC(=O)Cn2nc3ccc(SC4CCCCC4)nn3c2=O)cc1OC
2. CCOC(=O)c1ccc(NC(=O)Cn2nc3c(Oc4ccccc4)nccn3c2=O)cc1
3. O=S(=O)(c1ccc2nncn2c1)N(Cc1cc(F)cc(F)c1)c1cccc(F)c1
4. O=S(=O)(c1cccn2cnnc12)N(Cc1ccccc1F)c1ccc(F)c(F)c1

## Output
[4.98, -0.16, 2.7, 5.39]

I have 3 compounds here; please give me Inhibition for each one.
1. COc1ccccc1NC(=O)Cn1nc2c(SCc3ccc(Cl)cc3)nccn2c1=O
2. COc1ccccc1-n1ccn2c(SCc3ccc(C)cc3)nnc2c1=O
3. COc1ccc(NC(=O)Cn2nc3c(Oc4ccc(C)cc4)nccn3c2=O)cc1Cl

## Output
1: 1.74; 2: 2.57; 3: 18.79

---

# Test system: Klebsiella pneumoniae
# particulars: Concentration 32 ug.mL-1;; ASSAY_TEST Inhibition of Bacterial Growth; detection method Absorption (OD600); MEDIA CAMHB; plate type 384well; NBS; CORNING #3640; time 18 hr
# Description: Antibacterial activity against Klebsiella pneumoniae MDR ATCC 70063 (CO-ADD:GN_003); MIC in CAMBH media using NBS plates, by OD(600)
Entries with a potency or affinity are not part of this list.
experimental_readout: Inhibition
Your reply should be a number followed by the unit it is expressed in.

{"molecule_smiles": "COc1ccc2[nH]cc(C(=O)CSc3nnc4c(=O)n(-c5ccc(C)c(C)c5)ccn34)c2c1", "test_system": "Klebsiella pneumoniae", "Inhibition": "2.12%"}
{"molecule_smiles": "O=C(Cn1nc2c(N3CCOCC3)nccn2c1=O)Nc1cc(C(F)(F)F)ccc1Cl", "test_system": "Klebsiella pneumoniae", "Inhibition": "12.08%"}
{"molecule_smiles": "O=C(Cn1nc2c(SC3CCCCC3)nccn2c1=O)N1CCN(c2ccc(F)cc2)CC1", "test_system": "Klebsiella pneumoniae", "Inhibition": "10.98%"}
{"molecule_smiles": "COc1cccc(Sc2nc3ccccc3n3c(=O)n(CC(=O)Nc4ccc(Cl)cc4)nc23)c1", "test_system": "Klebsiella pneumoniae", "Inhibition": "2.35%"}
{"molecule_smiles": "CCOc1ccc(-n2ccn3c(SCc4cccc(C(F)(F)F)c4)nnc3c2=O)cc1", "test_system": "Klebsiella pneumoniae", "Inhibition": "0.24%"}
{"molecule_smiles": "O=c1c2sccc2n2c(=O)n(Cc3ccccc3Cl)nc2n1Cc1cccs1", "test_system": "Klebsiella pneumoniae", "Inhibition": "-3.57%"}
{"molecule_smiles": "O=C(Cn1nc2c(N3CCOCC3)nccn2c1=O)Nc1ccc2c(c1)OCO2", "test_system": "Klebsiella pneumoniae", "Inhibition": "20.48%"}
{"molecule_smiles": "COc1ccccc1-n1ccn2c(SCc3ccc(Cl)cc3)nnc2c1=O", "test_system": "Klebsiella pneumoniae", "Inhibition": "8.98%"}
{"molecule_smiles": "O=C(CSc1nnc2c(=O)n(-c3ccccc3)ccn12)Nc1ccc(Br)cc1F", "test_system": "Klebsiella pneumoniae", "Inhibition": "1.03%"}
{"molecule_smiles": "CCc1nnc2c(S(=O)(=O)N(Cc3cccc(F)c3)c3ccc(C)c(C)c3)cccn12", "test_system": "Klebsiella pneumoniae", "Inhibition": "12.58%"}

I have 3 compounds here; please give me Inhibition for each one.
1. CCOc1ccc(-n2ccn3c(SCC(=O)Nc4cc(F)ccc4F)nnc3c2=O)cc1
2. Cc1nnc2ccc(S(=O)(=O)N(Cc3ccccc3F)c3cccc(F)c3)cn12
3. COc1ccccc1NC(=O)Cn1nc2c(Oc3ccc(Cl)cc3)nccn2c1=O

## Output
1. 6.4%
2. 4.31%
3. 6.51%

---

# System: Klebsiella pneumoniae
# particulars: Concentration 32 ug.mL-1;; ASSAY_TEST Inhibition of Bacterial Growth; detection method Absorption (OD600); MEDIA CAMHB; plate type 384well; NBS; CORNING #3640; time 18 hr
Measured potencies and affinities stand elsewhere.
experimental_readout: Inhibition
Your reply should be a number followed by the unit it is expressed in.

I have 7 compounds here; please give me Inhibition for each one.
1. CCOc1ccc(-n2ccn3c(SCC(=O)Nc4cc(OC)cc(OC)c4)nnc3c2=O)cc1
2. Cc1ccc(NC(=O)Cn2nc3c(SC4CCCCC4)nccn3c2=O)cc1
3. CCOc1ccc(-n2ccn3c(SCC(=O)c4ccc(C)cc4)nnc3c2=O)cc1
4. O=C(Cn1nc2c3cc(-c4ccc(Cl)cc4)nn3ccn2c1=O)NCc1ccccc1
5. CCCCn1c(=O)c2sccc2n2c(=O)n(CC(=O)c3ccc(OC)cc3)nc12
6. COc1ccccc1-n1ccn2c(SCC#N)nnc2c1=O
7. Cc1ccc(-c2cc3c4nnc(CCC(=O)N5CCN(c6ccccn6)CC5)n4ccn3n2)cc1C

## Output
1. 3.96%
2. 5.75%
3. 10.63%
4. 15.63%
5. 1.02%
6. 22.72%
7. 7.34%

I have 4 compounds here; please give me Inhibition for each one.
1. COc1ccc(NC(=O)Cn2nc3c(SC4CCCCC4)nccn3c2=O)cc1OC
2. CCc1nnc2c(S(=O)(=O)N(Cc3ccc(OC)c(F)c3)c3ccccc3)cccn12
3. O=c1c2nnc(SCc3ccccc3F)n2ccn1-c1ccc(F)cc1
4. Cc1ccccc1Oc1nc2ccccc2n2c(=O)n(CC(=O)NCc3ccc4c(c3)OCO4)nc12

## Output
1: 12.09%; 2: 7.72%; 3: -2.87%; 4: 17.68%

---

Consider the following molecules; for each one, report its Inhibition.
# System: Candida albicans
# particulars: Concentration 32 ug.mL-1; ASSAY_TEST Inhibition of Fungal Growth; detection method Absorption (OD530)
Results with a measured potency or affinity are listed apart.
Your reply should be a number followed by the unit it is expressed in.

Solved entries:
{"molecule_smiles": "COc1ccc(NC(=O)Cn2nc3c4c5c(sc4ncn3c2=O)CCCC5)cc1", "Inhibition": "5.37%"}
{"molecule_smiles": "COc1cccc(NC(=O)Cn2nc3c(Oc4ccccc4)nccn3c2=O)c1", "Inhibition": "1.78%"}
{"molecule_smiles": "Cc1ccc(CN(c2ccccc2)S(=O)(=O)c2ccc3nncn3c2)cc1", "Inhibition": "-3.84%"}
{"molecule_smiles": "Cc1ccc(NC(=O)c2ccc3nnc(SCC(=O)Nc4ccc(F)cc4)n3c2)cc1", "Inhibition": "4.31%"}
{"molecule_smiles": "O=C(Cn1nc2c(SCc3ccccc3)nccn2c1=O)NC1CCCCC1", "Inhibition": "4.49%"}
{"molecule_smiles": "CCc1ccc(N(Cc2ccc(C)cc2)S(=O)(=O)c2cccn3c(C)nnc23)cc1", "Inhibition": "0.84%"}
{"molecule_smiles": "CN(C)C(=O)CSc1nnc2c(=O)n(-c3ccc(F)cc3)ccn12", "Inhibition": "3.85%"}
{"molecule_smiles": "Cc1cc(C)cc(Nc2nc(C)cc3nn(CC(=O)Nc4cc(F)cc(F)c4)c(=O)n23)c1", "Inhibition": "4.35%"}

Known value: Candida albicans Inhibition of the molecule `COc1cccc(-n2ccn3c(SCC(=O)c4c[nH]c5ccc(OC)cc45)nnc3c2=O)c1` equals 5.77%
